tested system: T1, memapsin 2 (Homo sapiens, UniProt P56817)
T1 construct: pET-11 vector-derived residues 1-15 of promemapsin 2-T1 (N, cleaved yes); made in house; host or cells: E. coli
T1 sequence (P56817 41-454 limits assumed): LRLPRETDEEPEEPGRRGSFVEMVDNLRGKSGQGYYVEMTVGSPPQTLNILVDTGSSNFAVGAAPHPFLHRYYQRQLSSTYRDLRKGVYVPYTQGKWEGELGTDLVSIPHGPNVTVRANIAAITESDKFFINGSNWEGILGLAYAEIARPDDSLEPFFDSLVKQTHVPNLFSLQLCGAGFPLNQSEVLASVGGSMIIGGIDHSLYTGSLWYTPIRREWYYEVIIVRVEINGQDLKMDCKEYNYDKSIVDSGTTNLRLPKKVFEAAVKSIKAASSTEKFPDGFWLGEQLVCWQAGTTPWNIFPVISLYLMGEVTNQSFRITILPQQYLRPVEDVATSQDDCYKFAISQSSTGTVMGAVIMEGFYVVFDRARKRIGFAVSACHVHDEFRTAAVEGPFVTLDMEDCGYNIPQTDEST
method summary: Inhibition of memapsin 2 proteolytic activity, fluorogenic substrate FS-2
Type: biochemical
protocol conditions: memapsin 2; independent of substrate, converted from Ki apparent; read-out: Ki
Hi there, I'd appreciate the recorded pKi for every entry that follows.
Answers are plain numbers, as −log10 of the molar value.

- compound: "CC(C)C[C@H](NC(=O)OC(C)(C)C)C(=O)N[C@@H](CC1CCCO1)C(=O)N[C@@H](CC(C)C)[C@@H](O)C[C@@H](C)C(=O)N[C@@H](CC(C)C)C(=O)NC(C)C (stereo partly shown) [MMI-215]"
  tested system: "T1, memapsin 2 (Homo sapiens, UniProt P56817)"
  pKi: 7.71
- compound: "CSCC[C@H](NC(=O)[C@@H](NC(=O)OC(C)(C)C)C(C)C)C(=O)N[C@@H](CO)[C@@H](O)C[C@@H](C)C(=O)N[C@H](C(=O)NCc1ccccc1)C(C)C"
  tested system: "T1, memapsin 2 (Homo sapiens, UniProt P56817)"
  pKi: 8.89
- compound: "CSCC[C@H](NC(=O)[C@@H](NC(=O)OC(C)(C)C)C(C)C)C(=O)N[C@@H](CC(C)C)[C@@H](O)C[C@@H](CC(N)=O)C(=O)N[C@H](C(=O)NCc1ccccc1)C(C)C"
  tested system: "T1, memapsin 2 (Homo sapiens, UniProt P56817)"
  pKi: 7.18

Q. Return reported pKi; argument: `CSCC[C@H](NC(=O)O[C@H]1CCOC1)C(=O)N[C@@H](CC(C)C)[C@@H](O)C[C@@H](C)C(=O)N[C@@H](CC(C)C)C(=O)NC(C)C`
A. 6.35
